# Test target: Muscarinic acetylcholine receptor M1 (Homo sapiens) (UniProt P11229)
# Sequence (P11229 whole entry): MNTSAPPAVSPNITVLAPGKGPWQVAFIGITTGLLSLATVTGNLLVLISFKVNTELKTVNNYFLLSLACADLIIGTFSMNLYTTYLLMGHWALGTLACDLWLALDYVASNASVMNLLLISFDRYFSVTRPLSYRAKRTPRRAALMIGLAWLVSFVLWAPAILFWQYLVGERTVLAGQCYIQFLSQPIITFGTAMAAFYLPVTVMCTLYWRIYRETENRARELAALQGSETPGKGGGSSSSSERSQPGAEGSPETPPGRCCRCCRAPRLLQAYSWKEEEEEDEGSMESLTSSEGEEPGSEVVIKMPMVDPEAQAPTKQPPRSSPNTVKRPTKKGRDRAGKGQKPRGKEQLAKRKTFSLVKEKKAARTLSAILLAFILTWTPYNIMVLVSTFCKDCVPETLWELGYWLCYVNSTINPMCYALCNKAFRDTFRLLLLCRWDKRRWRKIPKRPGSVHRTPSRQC
# Measurement conditions: at 100 µM
Experimental endpoint: PI metabolism (%)

CN1CCC=C(c2nsnc2OCCCCCCCCCCOc2nsnc2C2=CCCN(C)C2)C1: 76

(A) CN1CCC=C(c2nsnc2OCCCCCCCCCCCCOc2nsnc2C2=CCCN(C)C2)C1
(B) CCCCCCOc1nsnc1C1=CCCN(C)C1
Prompt: // select label with min value of measured PI metabolism from [ A , B ] Pick one and reply with its label.
Completion: B

----------
# Run description: Solubility in Kreb-Heinsleit buffer.
# Type: physicochemical
Experimental endpoint: solubility (µg/mL)

CN1CCC=C(c2nsnc2OCCOCCOCCOCCOc2nsnc2C2=CCCN(C)C2)C1: 20

(P) CN1CCC=C(c2nsnc2OCCCCCCCCCCCCOc2nsnc2C2=CCCN(C)C2)C1
(Q) CN1CCC=C(c2nsnc2OCCCCCCCCCCOc2nsnc2C2=CCCN(C)C2)C1
Prompt: // select label with min value of measured solubility from [ P , Q ] Pick one and reply with its label.
Completion: P
(P: 1.7 µg/mL, Q: 4 µg/mL)

The values you see were collected from ChEMBL document CHEMBL1134318.
